# Test system: SF-295 CNS
# ASSAY PROCEDURE: NCI tumour cell line growth inhibition, 48 h
MEASURED PARAMETER: TGI

> print(dat)
                                   molecule    result
1  C[N+]12C=CC=C1C(N1CCCC1)c1scc(-c3ccc(Br)cc3)c12 (stereo not drawn)  > 100 µM
2  CN(C)CC(O)c1ccc(/C=C/c2ccc(Cl)cc2)cc1 (stereo not drawn)      3 µM
3        CCOC(=O)/C(=C/c1ccc(OC)cc1)N(CC)CC  > 100 µM
4  CCOC(=O)/C(C#N)=C/c1coc2cc(C)cc(C)c2c1=O  > 100 µM
5        O=C1C(Br)=C(Br)C(=O)c2ccc(=O)ccc21   50.9 µM
6  O=C1c2cc3c(cc2CC12Cc1ccc4c(c1C2=O)CCC4)CCCC3 (stereo not drawn)  > 100 µM
7  CON(C)C(=O)C(Cc1ccccc1)NC(=O)OCc1ccccc1 (stereo not drawn)  > 100 µM
8  COc1ccc(C2=CC(C(C)=C(C(N)=O)C(N)=O)C=C(c3ccc(Br)cc3)C2)c(OC)c1 (stereo not drawn)  > 100 µM

====

// TGI lookup, one value per entry
# System: M14 melanoma
# ASSAY PROCEDURE: NCI tumour cell line growth inhibition, 48 h
MEASURED PARAMETER: TGI

COMPOUND	TESTED SYSTEM	RESULT
CC(=O)N[C@@H](Cc1ccc(OP(=O)(O)O)cc1)C(=O)N[C@H]1CCC(=O)N2CCC[C@@H](C(=O)Nc3cccc4ccccc34)N2C1=O	M14 melanoma	> 25 µM
C=C1C[C@H](O)[C@H](Br)C(C)(C)[C@@]12CCC(C)=C(Cl)C2	M14 melanoma	1.66 µM
N=c1oc2ccccc2cc1C(=O)NC12CC3CC(CC(C3)C1)C2	M14 melanoma	> 100 µM
COc1cc(-c2cccs2)sc1-c1cccs1	M14 melanoma	> 100 µM
N#Cc1nc(-c2cnccn2)oc1N	M14 melanoma	> 100 µM
C=CCNC(=S)N/C=C(\C#N)C(N)=O	M14 melanoma	> 100 µM
COc1cc(C2C(Cl)C(=O)N2n2cnc3ccccc3c2=O)ccc1O (stereo unspecified)	M14 melanoma	> 100 µM
OC(c1cc(C(F)(F)F)nc2c(C(F)(F)F)cccc12)C1CCCCN1 (stereo unspecified)	M14 melanoma	3.41 µM
O=C1NC(=NCc2ccccc2)S/C1=C\c1ccc2ncccc2c1	M14 melanoma	> 25 µM
CC(C)(C)[Si](C)(C)OC1[C@@H](O[Si](C)(C)C(C)(C)C)[C@@H](CNC(=O)NC(=O)C(F)(F)F)O[C@H]1n1cnc2c(NC(=O)Nc3ccccc3)ncnc21 (stereo partly specified)	M14 melanoma	13.2 µM
CCn1cnc2c(=S)nc(N)[nH]c21	M14 melanoma	> 100 µM
CC(=O)[O-].CC(=O)[O-].O=C(N/N=C/c1cc(Cl)cc(Cl)c1O)c1ccncc1.[Cu+2]	M14 melanoma	> 100 µM
CON(C)C(=O)C(C)N(Cc1ccccc1)Cc1ccccc1 (stereo unspecified)	M14 melanoma	> 100 µM
O=C1CSC(=S)N1/N=C/c1ccc(Cl)c([N+](=O)[O-])c1	M14 melanoma	40.6 µM
COc1ccc(C(C)NNC(=O)c2ccncc2)cc1OC (stereo unspecified)	M14 melanoma	> 100 µM
COC(=O)[C@]1(C)CCC[C@@]2(C)C1CC[C@@]13C=C(C(C)C)[C@@H](CC1=O)CC23 (stereo partly specified)	M14 melanoma	> 100 µM
Clc1ccc2cccc3c2c1C1OC3c2ccccc21 (stereo unspecified)	M14 melanoma	> 100 µM
O=c1cc(-c2ccc3c(c2)OCO3)[nH]c2cc3c(cc12)OCO3	M14 melanoma	> 100 µM
Cc1[nH]c(=O)nc2sc(=NC3CCCCC3)n(C3CCCCC3)c(=O)c12	M14 melanoma	> 100 µM
O=[N+]([O-])c1cc([N+](=O)[O-])c(C(F)(F)F)cc1NN=C(c1ccc(O)cc1)c1ccc(O)cc1	M14 melanoma	12.7 µM
O=C1c2sc(-c3ccc(Cl)cc3)cc2-n2cccc21	M14 melanoma	> 100 µM

====

# Test system: UO-31 renal
# ASSAY PROCEDURE: NCI tumour cell line growth inhibition, 48 h
Where a SMILES comes first, the peptide text is derived from it. The star is where a group is joined. OSu = O=C1CCC(=O)N1O*
Below, each entry is listed alongside its reported TGI.

COMPOUND	TESTED SYSTEM	TGI
Fc1cc(-c2nnc3n2N=C(c2ccc(Cl)cc2)CS3)c(Cl)cc1Cl	UO-31 renal	> 20.5 µM
Cn1cc(-c2cc3c(N4CCN(c5ncc([C@@](C)(N)c6ccc(F)cc6)cn5)CC4)ncnn3c2)cn1	UO-31 renal	> 100 µM
N#CC(C(=O)CCC(=O)Nc1ccc(Cl)c(Cl)c1)c1ccccc1 (stereo not drawn)	UO-31 renal	> 100 µM
C[C@]12c3c4cc(NC(=O)C(=O)NCc5ccc(-c6ccccn6)nc5)cc3Oc3cc(NC(=O)C(=O)NCc5ccc(-c6ccccn6)nc5)cc(c31)OC1C=C(NC(=O)C(=O)NCc3ccc(-c5ccccn5)nc3)C=C(O4)C12 (stereo partly drawn)	UO-31 renal	68.6 µM
CCCCCCCCCCCCNC(=S)OC	UO-31 renal	17.8 µM
O=C1C(C(Nc2ccccc2)c2ccccc2)=C([O-])c2ccccc21.O=C1C(C(Nc2ccccc2)c2ccccc2)=C([O-])c2ccccc21.[Cu+2] (stereo not drawn)	UO-31 renal	> 100 µM
C=C(C)C12OC1[C@@]1(C)C(=CC2=O)CCC(O)[C@@H]1C (stereo partly drawn)	UO-31 renal	41.9 µM
C/C(=N\NC(N)=S)c1ccc2c(c1)Sc1ccccc1O2	UO-31 renal	28.3 µM
Cc1ccc(C(=O)OC(C(=O)O)C(OC(=O)c2ccc(C)cc2)C(=O)O)cc1 (stereo not drawn) (tested in a mixture with another compound)	UO-31 renal	14.5 µM
C[N+]12C=CC=C1C(N1CCCC1)c1scc(-c3ccc(Br)cc3)c12 (stereo not drawn)	UO-31 renal	> 100 µM
COc1ccc(NC(=S)c2ccc(CN3CCCCC3)s2)cc1	UO-31 renal	35.7 µM
O=C(/C=C/c1c(O)ccc2ccccc12)c1ccc([N+](=O)[O-])cc1	UO-31 renal	> 61.7 µM
CCOC(=O)n1cc(C2=C(c3ccc(OC)c(OC)c3)COC2=O)c2ccccc21	UO-31 renal	> 100 µM
CCC(C)SC1SCC2C(=O)N(C)C3(CC3C)C(=O)OCC(NC(=O)c3nc4ccccc4cc3O)C(=O)NC(C)C(=O)N(C)C1C(=O)N(C)C1(CC1C)C(=O)OCC(NC(=O)c1nc3ccccc3cc1O)C(=O)NC(C)C(=O)N2C (stereo not drawn)	UO-31 renal	0.0127 µM
COC(=O)CC(C)(NS(=O)c1ccc(C)cc1)c1ccccc1 (stereo not drawn)	UO-31 renal	> 100 µM
COC(=O)c1cc2oc(/C=C3/SC(=S)N(NC(C)=O)C3=O)cc2n1C	UO-31 renal	92.7 µM
CCOC(=O)c1ccc(-c2cc(C)no2)[nH]1	UO-31 renal	> 100 µM
CCOC(=O)/C(=C/c1ccc(OC)cc1)N(CC)CC	UO-31 renal	> 100 µM
NCCCCC(NC(=O)C(N)Cc1ccc(O)cc1)C(=O)NC(CCCCN)C(=O)NC(CCCCN)C(=O)ON1C(=O)CCC1=O (stereo not drawn) (H-YKKK-OSu; configuration not given here)	UO-31 renal	> 100 µM
CC1NC(=O)C(C)C(c2ccccc2)N(N=O)C1c1ccccc1 (stereo not drawn)	UO-31 renal	> 100 µM
COc1ccc(/C=C/COC(C)=O)cc1OC	UO-31 renal	> 100 µM
CCN(CC)CCCNC(=O)c1cc(-c2nccn2C)nc2ccccc12	UO-31 renal	> 100 µM
S=P1(Oc2ccccc2)NNP2(=NP(N3CC3)(N3CC3)=NP(N3CC3)(N3CC3)=N2)NN1 (stereo not drawn)	UO-31 renal	> 100 µM
O=C1c2cc3c(cc2CC12Cc1ccc4c(c1C2=O)CCC4)CCCC3 (stereo not drawn)	UO-31 renal	> 100 µM
Cc1ccc(S(=O)(=O)N2CCC2c2ccccc2)cc1 (stereo not drawn)	UO-31 renal	> 100 µM
CC(=O)OCc1ccc2c(c1)C(O)NC(=O)O2 (stereo not drawn)	UO-31 renal	> 100 µM
O=C(Nc1c(O)[nH]c(=S)[nH]c1=O)c1ccccc1	UO-31 renal	> 100 µM
O=c1c(F)cn(Cc2c(Cl)cccc2Cl)c(=O)n1Cc1c(Cl)cccc1Cl	UO-31 renal	> 31.6 µM
CC#Cc1ccc(-c2ccccc2)s1	UO-31 renal	> 100 µM
C/C(CN1C(=O)c2ccccc2C1=O)=N\NS(=O)(=O)c1ccc(Cl)cc1	UO-31 renal	> 100 µM
CC(N)/C(N)=N/O (stereo not drawn)	UO-31 renal	> 100 µM
CCCC/C=C/C=C/C=C/CCCCCCCC(=O)OCC(COC(=O)CCCCCCC/C=C/C1C=CC(CCCC)C(C(=O)O)C1C(=O)O)OC(=O)CCCCCCC/C=C/C=C/C=C/CCCC (stereo not drawn) (tested in a mixture with another compound)	UO-31 renal	34.7 µM
O=c1[nH]c(-c2ccccc2)nc2cc(Cl)ccc12	UO-31 renal	> 100 µM
COc1ccc(CN2C(=O)C(Cl)=C(Nc3cccc(C(F)(F)F)c3)C2=O)cc1	UO-31 renal	32 µM
O=C1/C(=C\c2ccc(Cl)cc2Cl)Sc2scc(-c3ccc(O)c(O)c3)[n+]21	UO-31 renal	26.8 µM
COc1ccc2ncnc(Nc3ccc(OCc4ccccc4)cc3)c2c1	UO-31 renal	> 17 µM
COc1cc2c(cc1OC)C(Cl)C(c1ccc(F)cc1)=C2Cl (stereo not drawn)	UO-31 renal	33.3 µM
CC1(C)[C@@H](Cn2cc(I)c(=O)[nH]c2=O)CC[C@@]1(C)CO	UO-31 renal	> 100 µM

Source of measurements: PubChem BioAssay (NCI)
